Test system: ACHN renal
measurement-notes: NCI tumour cell line growth inhibition, 48 h
Hi there, I'd appreciate the recorded TGI for every entry that follows.

* CN1CCN(Cc2ccc(NC(=O)c3cncc(C#Cc4cncc5nccnc45)c3)cc2C(F)(F)F)CC1 | 6.48 µM
* N#Cc1c(Cl)nc2ccccc2c1N=[N+]=[N-] | 4.11 µM
* Cc1[nH]c(-c2nc3ccccc3[nH]2)c(C)c1C(=O)NC(C)C1CCCCC1 (configuration not stated) | 30.2 µM

Field: TGI. Fill in for each record below.
1. COc1cc2c(cc1OC)NC(=O)NC(Cc1ccc3c(c1)OCO3)CC2 (configuration not stated)
2. Cc1cc(C(=O)O)c(C)n1-c1cccc(C(=O)O)c1
3. COc1cc(N2CCN(C(C)C)CC2)ccc1Nc1nc(Nc2cccc(F)c2C(=O)O)c2cc[nH]c2n1
4. CN(C)CCn1c(=O)c2ccc3c4c(nn3CCN(C)C)c3cc([N+](=O)[O-])ccc3n(c1=O)c24
5. Cc1ccc(N2CCN(CCC(=O)O)CC2)cc1
6. Oc1cccc2cc(Br)cnc12
7. CC(=O)C(CN(C)C)C(c1ccccc1)c1c(O)c2ccccc2oc1=O (configuration not stated)

["> 100 µM", "> 100 µM", "> 25 µM", "0.975 µM", "> 100 µM", "> 69.2 µM", "> 100 µM"]

###

Hi there, I'd appreciate the recorded TGI for every entry that follows.
Test system: MCF7 breast
measurement-notes: NCI tumour cell line growth inhibition, 48 h
One number for each entry, in µM.

Consider the worked cases shown below.
- O=[n+]1c2ccccc2n([O-])c2cc(Cl)ccc21: 16.1
- COC1=CC(=O)c2c(c(COP(=O)(N(C)CCBr)N(C)CCBr)cn2C)C1=O: 0.671
- COc1ccc2c(c1)CCCN2S(=O)(=O)c1ccccc1[N+](=O)[O-]: 99.3
- COC(=O)C(CBr)CBr: 20.6

Consider the additional compound presented here.
I have this compound here, Cc1[nH]c(-c2nc3ccccc3[nH]2)c(C)c1C(=O)NC(C)C1CCCCC1 (stereo not given) , and I need its recorded TGI.
19.2

###

System: UACC-257 melanoma
measurement-notes: NCI tumour cell line growth inhibition, 48 h
Hi there, I'd appreciate the recorded TGI for every entry that follows.
One number for each entry, in µM.

Consider the worked cases shown below.
• O=c1c2cc(I)ccc2nc(SCc2n[nH]c(=S)o2)n1Cc1ccccc1 = 38.1
• COc1cc(-c2cc(/C=C/C(=O)c3ccc(Cl)c(Cl)c3)[nH]n2)cc(OC)c1OC = 74
• COC(=O)C(CBr)CBr = 12.5

I have this compound here, "N#Cc1c(Cl)nc2ccccc2c1N=[N+]=[N-]" , and I need its recorded TGI.
27.8

###

Test system: UO-31 renal
measurement-notes: NCI tumour cell line growth inhibition, 48 h
property-label: TGI

- CC(C)(C)OC/C=C1\C(=O)O[C@H]2C[C@@H](O[Si](C)(C)C(C)(C)C)C[C@@H]12: > 100 µM
- C(=N\OCCc1ccccc1)/c1cccnc1: > 100 µM
- CCOC(=O)c1oc2ccc([N+](=O)[O-])c3c2c1CCC3: > 100 µM
- O=C1NC(N2CCCCC2)=N/C1=C\c1ccccc1O: > 100 µM

Field: TGI. Fill in for each record below.
1. O=c1oc2ccc(Cl)cc2cc1-c1cn2ccccc2n1
2. COCCN1CCN(Cc2ccc(-c3n[nH]c4c3C(=O)c3c(NC(=O)NN5CCOCC5)cccc3-4)cc2)CC1
3. Cc1cc2nc3cc(C)c(N)cc3[n+](-c3ccccc3)c2cc1N
4. Cc1cc(N2CCCC2)nc(NCc2cc(Nc3ccnc4cc(Cl)ccc34)ccc2F)n1
5. O=C(NC(Nc1ccc(F)cc1)(C(F)(F)F)C(F)(F)F)C(C(F)(F)F)C(F)(F)F
6. N=C(N)c1ccc(NCCOCCNc2ccc(C(=N)N)cc2)cc1

1: 19.2 µM; 2: 9.36 µM; 3: > 100 µM; 4: 2.66 µM; 5: > 62.5 µM; 6: > 100 µM

###

Hi there, I'd appreciate the recorded TGI for every entry that follows.
System: SR leukemia
measurement-notes: NCI tumour cell line growth inhibition, 48 h
Where a SMILES comes first, the peptide text is derived from it.

Consider the worked cases shown below.
- Cc1ccc(C(SCC(N)C(=O)O)(c2ccccc2)c2ccccc2)cc1 (configuration not stated): > 45.8 µM
- Cc1nc2ccc(NC3OC(CO)C(O)C(O)C3O)cc2c(=O)n1-c1ccccc1 (configuration not stated): > 100 µM
- COc1ccc(N=Nc2c(C)c(C#N)c(=S)n(C3OC(CO)C(O)C(O)C3O)c2C)cc1 (configuration not stated): 87.1 µM

Field: TGI. Fill in for each record below.
1. NC(=O)/C=c1/c2ccccc2n2nc3ccccc3c12
2. CC1(C)OCC([C@H]2CC23SCCCS3)O1 (some centres not stated)
3. Nc1c(-c2ccccc2[N+](=O)[O-])nc2ccccn12
4. C/C(=N\N=C(\[Se])N(C)C)c1ccccn1
5. O=C1Nc2ccccc2/C1=C\c1nc(C2CCN(S(=O)(=O)c3ccc(F)cc3)CC2)n2ccccc12
6. CCN(CC)C(=O)N1CCN(C=S)CC1

["6.16 µM", "> 100 µM", "> 100 µM", "23.7 µM", "> 100 µM", "> 100 µM"]

Field: TGI. Fill in for each record below.
1. CC(=O)C(CN(C)C)C(c1ccccc1)c1c(O)c2ccccc2oc1=O (configuration not stated)
2. CC(C)C(C/C=C1/CC(CO)(COC(=O)c2ccccc2)OC1=O)C(C)C (configuration not stated)

["> 100 µM", "> 100 µM"]

Field: TGI. Fill in for each record below.
1. CCc1cc2ncc(CN3CCN(c4ccc(C(=O)NC)nc4)CC3)cc2[nH]c1=O
2. N=C(N)c1ccc(NCCOCCNc2ccc(C(=N)N)cc2)cc1
3. CC(/C=C/c1ccccc1)=N\NC(N)=S
4. CCCCCCCCCCCCCCCC(=O)OCC1OC(OC)C2NP(=O)(N(CCCl)CCCl)OC1C2O (configuration not stated)
5. CC(C)CC(NC(=O)C(Cc1ccccc1)NC(=O)C(Cc1c[nH]c2ccccc12)NC(=O)CNC(=O)C(N)Cc1ccc(O)cc1)C(=O)O (configuration not stated) (H-YGWFL-OH; configuration not given here)
6. O=C(CN1CCOCC1)c1ccc2c(c1)oc(=O)n2CCN1CCCC1

1: > 100 µM; 2: > 100 µM; 3: 65.3 µM; 4: 1.78 µM; 5: > 100 µM; 6: > 100 µM

###

System: RXF 393 renal
measurement-notes: NCI tumour cell line growth inhibition, 48 h; in the data active = GI50 below about 0.43 µM; inactive = the rest
Please reply with one of these outcomes: y (active), n (inactive)

Past entries and their recorded results:
• C=CC/C(=C\COP(=O)(OCc1ccc([N+](=O)[O-])o1)N(C)CCCCCl)CC/C=C(\C)CCC=C(C)C (stereo not given) = n
• Cn1c2ccccc2c2c3[nH][nH]c(=O)c3c3c4ccccc4[nH]c3c21 = n
• C[CH2][Ge]([CH2]C)([CH2]C)[O]C(=O)CCC(=O)[O][Ge]([CH2]C)([CH2]C)[CH2]C = n

Fill in: this test's call for "CCOC(=O)c1c(C)nc2c(c1N)CC(=O)N2CCc1ccccc1" is ___
n

Try the compound "COCCN1CCN(Cc2ccc(-c3n[nH]c4c3C(=O)c3c(NC(=O)NN5CCOCC5)cccc3-4)cc2)CC1"
y

Try the compound "CCCNC(=O)c1ccc(Cl)cc1Cl"
n

Try the compound "N=C(N)c1ccc(-c2ccc(-c3cccs3)s2)s1"
y

Try the compound "CCCCNC(=O)c1cc(NCc2cc(O)ccc2O)ccc1O"
n

Try the compound "CN1CCN(Cc2ccc(NC(=O)c3cncc(C#Cc4cncc5nccnc45)c3)cc2C(F)(F)F)CC1"
n

Try the compound "CCc1cc2ncc(CN3CCN(c4ccc(C(=O)NC)nc4)CC3)cc2[nH]c1=O"
n

###

Hi there, I'd appreciate the recorded TGI for every entry that follows.
Tested on: MALME-3M melanoma
measurement-notes: NCI tumour cell line growth inhibition, 48 h
One number for each entry, in µM.

Field: TGI. Fill in for each record below.
1. CCCCC(=O)N/N=C/c1c(O)ccc2ccccc12
2. COc1ccc2c(Cl)cc(NC(=O)Nc3c(C)cccc3C)nc2c1
3. NC(=O)/C=c1/c2ccccc2n2nc3ccccc3c12
4. COc1ccc(/C=C2\CN(Cc3cn(CCNc4ccnc5cc(Cl)ccc45)nn3)C/C(=C\c3ccc(OC)c(OC)c3)C2=O)cc1OC
5. CC(C)C(C/C=C1/CC(CO)(COC(=O)c2ccccc2)OC1=O)C(C)C (configuration not stated)

20.3
58.5
53.4
6.19
25.1

Field: TGI. Fill in for each record below.
1. N=C(N)c1ccc(-c2ccc(-c3cccs3)s2)s1
2. C=CC(Br)(CBr)CCC(Br)C(C)(C)Cl (configuration not stated)

[3.67, 19.2]
